# System: NCI-H211 complex spheroid viability
# RUN DESCRIPTION: Anticancer human tumor NCI-H211 cell line growth inhibition [LSD1]; active means viability on the fitted dose curve at most 10% of control; inactive means the rest;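 further: luminescent viability read after seven days of drug exposure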
# RUN CONDITIONS: second compound 0.316 µM; first compound 0.0316 µM
Outcome codes: active, inactive

MOLECULE | CLASS
COc1ccc([C@@H](O)c2cc(-c3ncnc4cc(N5CCOCC5)ccc34)c(F)cc2Cl)nn1 + NC1CC1c1ccc(-c2cccc(O)c2)cc1 | inactive
O=C(C=Cn1cnc(-c2cc(C(F)(F)F)cc(C(F)(F)F)c2)n1)NNc1cnccn1 + NC1CC1c1ccc(-c2cccc(O)c2)cc1 | inactive
CC(C)c1c(-c2ccccc2)nc2c(C#N)c[nH]n2c1=O + NC1CCC(NC2CC2c2ccccc2)CC1 | inactive
CC1(C)CCC(CN2CCN(c3ccc(C(=O)NS(=O)(=O)c4ccc(NCC5CCOCC5)c([N+](=O)[O-])c4)c(Oc4cnc5[nH]ccc5c4)c3)CC2)=C(c2ccc(Cl)cc2)C1 + NC1CCC(NC2CC2c2ccccc2)CC1 | inactive
COc1cc(Nc2ncc3c(n2)-c2ccc(Cl)cc2C(c2c(F)cccc2OC)=NC3)ccc1C(=O)O + NC1CC1c1ccc(-c2cccc(O)c2)cc1 | active
Nc1ncn(C2CC(O)C(CO)O2)c(=O)n1 (stereo unspecified) + NC1CCC(NC2CC2c2ccccc2)CC1 | active
Cn1ncnc1C1c2n[nH]c(=O)c3cc(F)cc(c23)NC1c1ccc(F)cc1 (stereo unspecified) + NC1CCC(NC2CC2c2ccccc2)CC1 | active
CC[C@@]1(O)C(=O)OCc2c1cc1n(c2=O)Cc2cc3c(CN(C)C)c(O)ccc3nc2-1 + NC1CCC(NC2CC2c2ccccc2)CC1 | active
Cn1ncnc1C1c2n[nH]c(=O)c3cc(F)cc(c23)NC1c1ccc(F)cc1 (stereo unspecified) + NC1CC1c1ccc(-c2cccc(O)c2)cc1 | active
CC(C)CC(NC(=O)C(Cc1ccccc1)NC(=O)c1cnccn1)B(O)O (stereo unspecified) + NC1CCC(NC2CC2c2ccccc2)CC1 | active
CC(C)CC(NC(=O)C(Cc1ccccc1)NC(=O)c1cnccn1)B(O)O (stereo unspecified) + NC1CC1c1ccc(-c2cccc(O)c2)cc1 | active
CC(C)c1c(-c2ccccc2)nc2c(C#N)c[nH]n2c1=O + NC1CC1c1ccc(-c2cccc(O)c2)cc1 | inactive
CC1COCCN1c1cc(-c2ccnn2C)c2ccnc(-c3ccn[nH]3)c2n1 (stereo unspecified) + NC1CC1c1ccc(-c2cccc(O)c2)cc1 | active
COc1cc(Nc2ncc3c(n2)-c2ccc(Cl)cc2C(c2c(F)cccc2OC)=NC3)ccc1C(=O)O + NC1CCC(NC2CC2c2ccccc2)CC1 | active
Nc1ncn(C2CC(O)C(CO)O2)c(=O)n1 (stereo unspecified) + NC1CC1c1ccc(-c2cccc(O)c2)cc1 | active
CC(C)CC(NC(=O)CNC(=O)c1cc(Cl)ccc1Cl)B1OC(=O)CC(CC(=O)O)(C(=O)O)O1 (stereo unspecified) + NC1CC1c1ccc(-c2cccc(O)c2)cc1 | inactive
COc1ccc([C@@H](O)c2cc(-c3ncnc4cc(N5CCOCC5)ccc34)c(F)cc2Cl)nn1 + NC1CCC(NC2CC2c2ccccc2)CC1 | inactive
O=C(c1cc(Cc2n[nH]c(=O)c3ccccc23)ccc1F)N1CCN(C(=O)C2CC2)CC1 + NC1CC1c1ccc(-c2cccc(O)c2)cc1 | inactive
CC1COCCN1c1cc(C2(S(C)(=N)=O)CC2)nc(-c2ccnc3[nH]ccc23)n1 (stereo unspecified) + NC1CC1c1ccc(-c2cccc(O)c2)cc1 | inactive
O=C(C=Cn1cnc(-c2cc(C(F)(F)F)cc(C(F)(F)F)c2)n1)NNc1cnccn1 + NC1CCC(NC2CC2c2ccccc2)CC1 | inactive
CC1(C)CCC(CN2CCN(c3ccc(C(=O)NS(=O)(=O)c4ccc(NCC5CCOCC5)c([N+](=O)[O-])c4)c(Oc4cnc5[nH]ccc5c4)c3)CC2)=C(c2ccc(Cl)cc2)C1 + NC1CC1c1ccc(-c2cccc(O)c2)cc1 | inactive
CC[C@@]1(O)C(=O)OCc2c1cc1n(c2=O)Cc2cc3c(CN(C)C)c(O)ccc3nc2-1 + NC1CC1c1ccc(-c2cccc(O)c2)cc1 | active
CC(C)CC(NC(=O)CNC(=O)c1cc(Cl)ccc1Cl)B1OC(=O)CC(CC(=O)O)(C(=O)O)O1 (stereo unspecified) + NC1CCC(NC2CC2c2ccccc2)CC1 | inactive
O=C(c1cc(Cc2n[nH]c(=O)c3ccccc23)ccc1F)N1CCN(C(=O)C2CC2)CC1 + NC1CCC(NC2CC2c2ccccc2)CC1 | inactive
CC1COCCN1c1cc(-c2ccnn2C)c2ccnc(-c3ccn[nH]3)c2n1 (stereo unspecified) + NC1CCC(NC2CC2c2ccccc2)CC1 | active
CC1COCCN1c1cc(C2(S(C)(=N)=O)CC2)nc(-c2ccnc3[nH]ccc23)n1 (stereo unspecified) + NC1CCC(NC2CC2c2ccccc2)CC1 | inactive
